SUBJECT_OF_TEST: T1, human recombinant soluble ACE2 (human, UniProt Q9BYF1 18-740)
T1 construct: also called hrsACE2
ASSAY_TEXT: ELISA screen
QUANTITY: Mean normalized OD (OD)
One number for each entry, in OD.

Study these solved cases before continuing.
>  <BINDER>
Siglec1 CRD-mouse IgG2a-Fc fusion protein (Fc fusion) TWGVSSPKNVQGLSGSCLLIPCIFSYPADVPVSNGITAIWYYDYSGKRQVVIHSGDPKLVDKRFRGRAELMGNMDHKVCNLLLKDLKPEDSGTYNFRFEISDSNRWLDVKGTTVTVTGGGSGGGSGGGS

>  <Mean normalized OD, OD>
-0.002

$$$$
>  <BINDER>
Dgcr2 CRD-mouse IgG2a-Fc fusion protein (Fc fusion) CPSGWHHYEGTASCYRVYLSGENYWDAAQTCQRVNGSLATFSTDQELRFVLAQEWDQPERSFGWKDQRKLWVGYQYVITGRNHSLEGRWEVAFKGSPEVFLPPDPIFASAMSENDNVFCAQLQCFHFGGGSGGGSGGGS

>  <Mean normalized OD, OD>
0.012

$$$$
>  <BINDER>
Sele CRD-mouse IgG2a-Fc fusion protein (Fc fusion) WYYNASSELMTYDEASAYCQRDYTHLVAIQNKEEINYLNSNLKHSPSYYWIGIRKVNNVWIWVGTGKPLTEEAQNWAPGEPNNKQRNEDCVEIYIQRTKDSGMWNDERCNKKKLALCYGGGSGGGSGGGS

>  <Mean normalized OD, OD>
0

$$$$

For every record below, what is its Mean normalized OD?
1. Cd209a CRD-mouse IgG2a-Fc fusion protein (Fc fusion) FQGSCYFFSVAQKSWNDSATACHNVGAQLVVIKSDEEQNFLQQTSKKRGYTWMGLIDMSKESTWYWVDGSPLTLSFMKYWSKGEPNNLGEEDCAEFRDDGWNDTKCTNKKFWICKGGGSGGGSGGGS
2. Reg1 CRD-mouse IgG2a-Fc fusion protein (Fc fusion) ISCPEGSNAYSSYCYYFTEDRLTWADADLFCQNMNSGYLVSVLSQAEGNFVASLIKESGTTDANVWTGLHDPKRNRRWHWSSGSLFLYKSWATGSPNSSNRGYCVSLTSNTGYKKWKDDNCDAQYSFVCKFGGGSGGGSGGGS
3. Siglec15 CRD-mouse IgG2a-Fc fusion protein (Fc fusion) PAQRWSMQVPAEVNAEAGDAAVLPCTFTHPHRHYDGPLTAIWRSGEPYAGPQVFRCTAAPGSELCQTALSLHGRFRLLGNPRRNDLSLRVERLALADSGRYFCRVEFTGDAHDRYESRHGGGSGGGSGGGS
4. Cd209d CRD-mouse IgG2a-Fc fusion protein (Fc fusion) FFNGSCYFFSKSQRNWHNSTTACQELGAQLVIIETDEEQTFLQQTSKARGPTWMGLSDMHNEATWHWVDGSPLSPSFTRYWNRGEPNNVGDEDCAEFSGDGWNDLSCDKLLFWICKGGGSGGGSGGGS
5. Mrc1_1 CRD-mouse IgG2a-Fc fusion protein (Fc fusion) LTGILYQINSKSALTWHQARASCKQQNADLLSVTEIHEQMYLTGLTSSLSSGLWIGLNSLSVRSGWQWAGGSPFRYLNWLPGSPSSEPGKSCVSLNPGKNAKWENLECVQKLGYICKGGGSGGGSGGGS
6. Ly75_5 CRD-mouse IgG2a-Fc fusion protein (Fc fusion) IEGSEYWFVADPHLNYEEAVLYCASNHSFLATITSFTGLKAIKNKLANISGEEQKWWVKTSENPIDRYFLGSRRRLWHHFPMTFGDECLHMSAKTWLVDLSKRADCNAKLPFICEGGGSGGGSGGGS

Result:
0.049
-0.073
0.011
0.039
0.161
-0.106

For every record below, what is its Mean normalized OD?
1. Ly75_9 CRD-mouse IgG2a-Fc fusion protein (Fc fusion) YKDGVYSVIQKKVTWYEALNACSQSGGELASVHNPNGKLFLEDIVNRDGFPLWVGLSSHDGSESSFEWSDGRAFDYVPWQSLQSPGDCVVLYPKGIWRREKCLSVKDGAICYKGGGSGGGSGGGS
2. Lgals8_2 CRD-mouse IgG2a-Fc fusion protein (Fc fusion) FEARLNASMGPGRTVVIKGEVNTNARSFNVDLVAGKTRDIALHLNPRLNVKAFVRNSFLQDAWGEEERNITCFPFSSGMYFEMIIYCDVREFKVAINGVHSLEYKHRFKDLSSIDTLSVDGDIRLLDVRSWGGGSGGGSGGGS
3. Clec7a CRD-mouse IgG2a-Fc fusion protein (Fc fusion) HGKSCYLFSFSGNSWYGSKRHCSQLGAHLLKIDNSKEFEFIESQTSSHRINAFWIGLSRNQSEGPWFWEDGSAFFPNSFQVRNTAPQESLLHNCVWIHGSEVYNQICNTSSYSICEGGGSGGGSGGGS
4. Clec2l CRD-mouse IgG2a-Fc fusion protein (Fc fusion) YGRKCYYFSEEPRDWNTGRQYCHTHEAALAVIQSQKELEFMFKFTRREPWIGLRRVGDDFHWVNGDPFDPDTFTISGMGECVFVEPTRLVSTECLTTRPWVCSGGGSGGGSGGGS

Result:
[-0.014, 0.074, -0.001, 0]

The binder identified as Lgals4_2 CRD-mouse IgG2a-Fc fusion protein (Fc fusion) YVGALQGGLTVRRTIIIKGYVLPTARNFVINFKVGSSGDIALHLNPRIGDSVVRNSFMNGSWGAEERKVAYNPFGPGQFFDLSIRCGMDRFKVFANGQHLFDFSHRFQAFQMVDTLEINGDITLSYVQIGGGSGGGSGGGS registered its Mean normalized OD at 0.031
